Test system: Saccharomyces cerevisiae
Assay Overview: Inhibition of yeast alpha-glucosidase at 100 uM
Recorded measurements of inhibition, one per entry
Report the value in % with no unit label.

| Compound | Measured Target | Measurement Unit | inhibition |
| --- | --- | --- | --- |
| O=C1Nc2ccccc2C1=Cc1cn[nH]c1C(=O)O (mixture of isomers) | Saccharomyces cerevisiae | % | 11.4 |
| Cn1cc(C=C2C(=O)Nc3ccccc32)cn1 | Saccharomyces cerevisiae | % | 34.5 |

Lab note: measured inhibition of COC(=O)Nc1ccc2c(c1)C(=Cc1ccc(O)cc1)C(=O)N2 was 57.9

Lab note: measured inhibition of COc1cc(NC(C)=O)c2c(c1)C(CC#N)(OC(C)=O)C(=O)N2 (centres undefined) was 4.75

Lab note: measured inhibition of O=C1Nc2ccc(NC(=O)c3ccccc3)cc2C1=Cc1ccc([N+](=O)[O-])cc1 (mixture of isomers) was 104

Lab note: measured inhibition of O=C1Nc2ccc(Br)cc2C1=Cc1ccccn1 was -1.49

Lab note: measured inhibition of O=C1Nc2ccc(NC(=O)c3ccccc3)cc2C1=Cc1ccc(O)cc1 (mixture of isomers) was 92.3

Lab note: measured inhibition of C[C@H]1O[C@H](O[C@H]2[C@H](O)[C@@H](O)[C@@H](O[C@H]3[C@H](O)[C@@H](O)C(O)O[C@@H]3CO)O[C@@H]2CO)[C@H](O)[C@@H](O)[C@@H]1N[C@H]1C=C(CO)[C@@H](O)[C@H](O)[C@H]1O (some centres undefined) was 46.6

Lab note: measured inhibition of Cc1ccc(C(=O)CC2(O)C(=O)Nc3ccc(Br)cc32)cc1 (centres undefined) was -3.94
